Source listed as patent US20240247079A1.

ELISA reading at antibody dilution 1:6.25K values, listed per item
Target: T1, HMMW micropeptide (recombinant, purified from Escherichia coli BL21) (human)
T1 construct: also called purified HMMW micropeptide; human HMMW micropeptide
T1 peptide: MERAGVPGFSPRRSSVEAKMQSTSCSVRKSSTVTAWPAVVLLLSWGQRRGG
Assay: indirect ELISA, HMMW micropeptide coated at 1 ug/ml, antibody dilution 1:6.25K
value type: ELISA reading at antibody dilution 1:6.25K

INSERT INTO measurements (binder, endpoint_value) VALUES
  ('Anti-HMMW antibody-1 (antibody, V domains shown, Mouse monoclonal antibody from a BALB/c x SP2/0 hybridoma; also called anti-HMMW-1 antibody) VH: EVKLEESGGGLVQPGGSMKFSCVASGFTFSNYWMNWVRQSPERGLEWVAEIKLKSNNYATLYAESVKGRFTISRDDSKSSVYLQVNNLRAEDTGIYYCITEIFDYWGQGTTLTVSS VL: QAVVTQESALTTSPGETVTLTCRSSTGAVTTSNYATWVQEKPDHLFTGLIVGANNRAPGVPARFSGSLIGDKAALTITGAQTEDEAIYFCALWFLNHWVFGGGTKLTVLG', 2.59),
  ('Anti-HMMW antibody-4 (antibody, V domains shown, Mouse monoclonal antibody from a BALB/c x SP2/0 hybridoma; also called anti-HMMW-4 antibody) VH: EVKLEESGGGLVQPGGSMKLSCVASGFTFSDYWMNWVRQSPEKGLEWLTEIRLKSNNYLTHYAESVKGRFTISRDDSKSSVYLQMNNLRAEDTGIYYCSVETMDYWGQGISVTVSS VL: QAVVTQESALTTSSGETVTLTCRSSTGAVTTSNYANWVQEKPDHLFTGLIRGTNNRAPGVPARFSGSLIGDKAALTITGAQTEDEAIYFCALWYSNHWVFGGGTKLTVL', 3.45),
  ('Anti-HMMW antibody-2 (antibody, V domains shown, Mouse monoclonal antibody from a BALB/c x SP2/0 hybridoma; also called anti-HMMW-2 antibody) VH: EVKLEESGGGLVQPGGSMKVSCVGSGFTFSNYWMNWVRQSPEKGLEWVAEIRLKSNNYATHYAESVKGRFTISRDDSKRSVYLQMNNLRVEDTGIYYCTTEAVDYWGQGTSVTVSS VL: DIVMTQAAFSNPVTLGTSASISCRSSKSLLHSNGITYLYWYLQKPGQSPQLLIYQMSNLASGVPDRFSSSGSGTDFTLRISRVEAEDVGVYYCAQNLELPTFGGGTKLEIKR', 3.35);
